# credit: ChEMBL document CHEMBL5352404

Readings of inhibition at 50 µM for the listed compounds
Test system: Pseudomonas aeruginosa
Test: Inhibition of biofilm formation in eYFP labeled Pseudomonas aeruginosa PAO1 at 50 uM incubated for 24 hrs by crystal violet staining based analysis relative to control
Format: functional
Entry rule: numbers only, all in %.

O=C1C=C(CBr)C(=C(Br)Br)O1 : 60
O=C1C=C/C(=C/Br)O1 : 75
COc1cccc(C(=C2C=CC(=O)O2)c2cccc(OC)c2)c1 : 44
O=C1C=C/C(=C(\Cl)I)O1 : 51

For record "COc1ccccc1C(=C1C=CC(=O)O1)c1ccccc1OC" the listed inhibition at 50 µM is 41

For record "CC1=CC(=O)OC1=C(Br)Br" the listed inhibition at 50 µM is 70

# compound "O=C1C=CC(=C(Cl)Cl)O1" ; its inhibition at 50 µM = 52
